Molecular target: Hck-1 (Homo sapiens, UniProt P08631)
Sequence (P08631 whole entry): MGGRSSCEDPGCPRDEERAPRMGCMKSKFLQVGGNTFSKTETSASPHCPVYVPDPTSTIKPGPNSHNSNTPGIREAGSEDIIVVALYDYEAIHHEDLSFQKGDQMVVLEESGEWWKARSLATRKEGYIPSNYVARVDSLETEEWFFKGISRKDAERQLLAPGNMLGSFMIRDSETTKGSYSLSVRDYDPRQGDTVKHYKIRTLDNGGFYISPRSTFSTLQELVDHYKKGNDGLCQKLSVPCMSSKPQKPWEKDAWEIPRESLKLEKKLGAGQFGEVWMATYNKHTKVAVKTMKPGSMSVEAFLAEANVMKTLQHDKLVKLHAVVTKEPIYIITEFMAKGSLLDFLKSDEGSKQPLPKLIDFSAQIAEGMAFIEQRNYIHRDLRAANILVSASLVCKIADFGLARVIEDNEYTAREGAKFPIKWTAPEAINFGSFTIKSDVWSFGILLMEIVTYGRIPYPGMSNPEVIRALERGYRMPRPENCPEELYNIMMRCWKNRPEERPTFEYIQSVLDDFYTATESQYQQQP
assay-metric: IC50

Worked cases, answers included:
Ask | Please state recorded IC50 (tested on Hck-1 (Homo sapiens, UniProt P08631)) of COc1cc(Nc2ncnc(Nc3ccc4c(c3)OCO4)n2)cc(OC)c1OC [Compound 252]
Reply | > 11.3 µM

Ask | I'm curious: which IC50 was measured for COc1cc(Nc2ncnc(-n3c(Nc4cccc(C)c4)nc4ccccc43)n2)cc(OC)c1OC [Compound 386] tested on Hck-1 (Homo sapiens, UniProt P08631)?
Reply | > 9.31 µM

Ask | # get_value(readout= IC50, system= Hck-1 (Homo sapiens, UniProt P08631)) for COc1cc(Nc2ncnc(-n3c(N)nc4ccccc43)n2)cc(OC)c1OC [Compound 289]
Reply | > 11.4 µM

Ask | Could you share what IC50 was measured for COc1cc(Nc2ncnc(-n3c(NCCc4ccccc4)nc4ccccc43)n2)cc(OC)c1OC [Compound 509] , tested on Hck-1 (Homo sapiens, UniProt P08631)?
Reply | > 9.04 µM

Ask | Lab request: please report IC50 under test system Hck-1 (Homo sapiens, UniProt P08631) for COc1cc(Nc2ncnc(-n3c(NC(CCO)c4ccccc4)nc4ccccc43)n2)cc(OC)c1OC (stereo not shown) [Compound 591]
Reply | 0.758 to 4.55 µM

Ask | Please tell me: IC50 of COc1ccc(Nc2ncnc(Nc3cc(OC)c(OC)c(OC)c3)n2)cc1 [Compound 89] , system Hck-1 (Homo sapiens, UniProt P08631)?
Reply | > 11.7 µM

Ask | Entry CNc1nc2ccccc2n1-c1ncnc(Nc2cc(OC)c(OC)c(OC)c2)n1 [Compound 417] , system Hck-1 (Homo sapiens, UniProt P08631): what IC50 was measured?
Reply | > 11 µM

Ask | Look up IC50 with Hck-1 (Homo sapiens, UniProt P08631) for this molecule: COc1cc(Nc2ncnc(-n3c(Nc4ccc(C(C)C)cc4)nc4ccccc43)n2)cc(OC)c1OC [Compound 388]
Reply | > 8.8 µM

Others:
Ask | What value of IC50 on Hck-1 (Homo sapiens, UniProt P08631) does COc1cc(Nc2ncnc(Nc3cc(OC)c(OC)c(OC)c3)n2)cc(OC)c1 [Compound 86] have?
Reply | > 10.9 µM

Ask | Please state recorded IC50 (tested on Hck-1 (Homo sapiens, UniProt P08631)) of COc1cc(Nc2ncnc(Nc3cc(-c4ccco4)n[nH]3)n2)cc(OC)c1 [Compound 365]
Reply | > 11.9 µM

Ask | Query the reported IC50 for Hck-1 (Homo sapiens, UniProt P08631); item: COc1cc(Nc2ncnc(-n3c(N)nc4cc(C(F)(F)F)ccc43)n2)cc(OC)c1OC [Compound 292]
Reply | > 9.75 µM

###

Target: EGFR (Homo sapiens, UniProt P00533)
Construct: Kinases are expressed as either kinase domains or full length constructs; made in house
Sequence (P00533 25-1210, species assumed): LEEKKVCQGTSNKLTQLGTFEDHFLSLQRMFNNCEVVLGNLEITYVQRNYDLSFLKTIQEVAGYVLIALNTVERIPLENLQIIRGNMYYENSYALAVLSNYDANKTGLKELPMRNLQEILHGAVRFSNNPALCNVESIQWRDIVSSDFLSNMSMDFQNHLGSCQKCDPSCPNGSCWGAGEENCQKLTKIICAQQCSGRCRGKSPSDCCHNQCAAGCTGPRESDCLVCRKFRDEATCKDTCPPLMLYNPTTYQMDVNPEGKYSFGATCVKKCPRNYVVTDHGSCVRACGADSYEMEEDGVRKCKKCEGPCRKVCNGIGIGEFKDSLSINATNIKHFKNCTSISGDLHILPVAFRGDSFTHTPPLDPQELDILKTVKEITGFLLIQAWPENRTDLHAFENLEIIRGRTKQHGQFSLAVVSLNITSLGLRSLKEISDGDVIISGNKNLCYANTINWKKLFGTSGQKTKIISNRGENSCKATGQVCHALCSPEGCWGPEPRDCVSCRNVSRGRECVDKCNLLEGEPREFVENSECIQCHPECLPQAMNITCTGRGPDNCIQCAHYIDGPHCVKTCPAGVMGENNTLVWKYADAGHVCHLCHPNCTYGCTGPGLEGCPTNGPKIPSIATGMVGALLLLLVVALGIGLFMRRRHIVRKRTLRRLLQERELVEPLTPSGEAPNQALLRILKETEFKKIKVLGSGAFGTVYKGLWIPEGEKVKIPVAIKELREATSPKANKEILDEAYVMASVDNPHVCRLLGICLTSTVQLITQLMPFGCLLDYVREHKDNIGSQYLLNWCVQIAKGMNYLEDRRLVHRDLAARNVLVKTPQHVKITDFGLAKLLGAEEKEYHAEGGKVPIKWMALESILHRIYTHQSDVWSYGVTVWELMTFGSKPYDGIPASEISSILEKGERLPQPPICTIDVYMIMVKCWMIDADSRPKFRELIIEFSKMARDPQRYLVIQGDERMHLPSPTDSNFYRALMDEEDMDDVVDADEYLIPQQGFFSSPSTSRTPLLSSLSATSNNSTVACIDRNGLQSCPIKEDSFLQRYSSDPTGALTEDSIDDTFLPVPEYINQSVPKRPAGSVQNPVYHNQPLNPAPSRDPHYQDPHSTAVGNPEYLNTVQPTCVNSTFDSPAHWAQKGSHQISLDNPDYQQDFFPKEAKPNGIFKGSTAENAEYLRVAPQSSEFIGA
Assay: Kinase inhibition assay (33P transfer), EGFR
Type: biochemical
Settings: Table 2, kinase inhibition class; read-out: EGFR-1
pIC50: −log10 of the molar value.
assay-metric: pIC50

Answered cases to consult:
Ask | Reported pIC50, compound O=c1[nH]c2ccccc2n1-c1ncnc(Nc2nccc3ccccc23)n1 [Compound 689] : ____
Reply | 5.17 to 5.95

Ask | Field request: pIC50 | item: COC(=O)c1sccc1Nc1ncnc(Nc2cc(OC)c(OC)c(OC)c2)n1 [Compound 315]
Reply | < 4.97

Ask | Can you look up the measured pIC50 of COc1cc(Nc2ncnc(-n3c(Cl)nc4ccccc43)n2)cc(OC)c1OC [Compound 378] for me?
Reply | < 4.96

Ask | So what's the measured pIC50 for this one? Nc1ncnc(Nc2cccc(C(F)(F)F)c2)n1 [Compound 1015]
Reply | < 4.75

Ask | Given the entry COc1cc(Nc2ncnc(-n3c(Nc4ccc(C(C)C)cc4)nc4ccccc43)n2)cc(OC)c1OC [Compound 388] , report its measured pIC50.
Reply | < 5.06

---
Ask | Endpoint output: pIC50 of COc1cc(Nc2ncnc(-n3c(=O)oc4ccccc43)n2)cc(OC)c1OC [Compound 423] . Value?
Reply | 5.22 to 5.99

Ask | Any idea what its pIC50 is? The compound is COc1cc(Nc2ncnc(-n3ncc(-c4ccccc4)c3N)n2)cc(OC)c1OC [Compound 522]
Reply | 5.08 to 5.24

Ask | Look up pIC50: COc1cc(Nc2ncnc(-n3c(NCc4ccc(O)cc4)nc4ccccc43)n2)cc(OC)c1OC [Compound 561]
Reply | < 5.05

Data origin, for the record: patent US7074789B2
